Catalogue of IC50 values
# Tested on: HepG2
# Test protocol: Photodynamic cytotoxicity against human HepG2 cells assessed as inhibition of cell viability incubated for 3 hrs followed by photo-irradiation at 54 J/cm2 measured after 24 hrs by CCK8 assay
# Type: functional, cell-based
# Reported conditions: HepG2, light or radiation study
Numeric answer only, unit nM assumed.

Use the examples below as a reference point.
[
  {
    "Compound smiles": "COc1ccc2c(c1)CCc1c(-c3ccccc3)c3n(c1-2)[B-](F)(F)[N+]1=C(c2ccc(OCc4cn(CCCN5CCOCC5)nn4)cc2)C(I)=C(c2ccccc2)C1=N3",
    "IC50 [nM]": 9.1
  },
  {
    "Compound smiles": "C=Cc1c(C)c2cc3nc(c(CC(=O)O)c4[nH]c(cc5nc(cc1[nH]2)C(C)=C5CC)c(C)c4C(=O)O)[C@@H](CCC(=O)O)[C@@H]3C",
    "IC50 [nM]": 599
  }
]

// next item, IC50 requested
Task: Report IC50, nothing else, for this compound: "Br.COc1ccc2c(c1)CCc1c(-c3ccccc3)c3n(c1-2)[B-](F)(F)[N+]1=C(c2ccc(OCc4cn(CCC[P+](c5ccccc5)(c5ccccc5)c5ccccc5)nn4)cc2)C(I)=C(c2ccccc2)C1=N3"
Result: 14.3

---

# Test protocol: Cytotoxicity against human HeLa cells assessed as inhibition of cell viability under dark condition incubated for 27 hrs by CCK8 assay
# Type: toxicity, cell-based
Measurement kind: IC50 at 27 h

Use the examples below as a reference point.
[
  {
    "Compound smiles": "Br.COc1ccc2c(c1)CCc1c(-c3ccccc3)c3n(c1-2)[B-](F)(F)[N+]1=C(c2ccc(OCC(=O)NCCC[P+](c4ccccc4)(c4ccccc4)c4ccccc4)cc2)C(I)=C(c2ccccc2)C1=N3",
    "Observed value": "21.3 µM"
  },
  {
    "Compound smiles": "COc1ccc2c(c1)CCc1c(-c3ccccc3)c3n(c1-2)[B-](F)(F)[N+]1=C(c2ccc(OCc4cn(CCCNC(=O)c5c(F)c(F)c(F)c(F)c5F)nn4)cc2)C(I)=C(c2ccccc2)C1=N3",
    "Observed value": "> 50 µM"
  },
  {
    "Compound smiles": "COc1ccc2c(c1)CCc1c(-c3ccccc3)c3n(c1-2)[B-](F)(F)[N+]1=C(c2ccc(OCC(=O)NCCCNC(=O)c4c(F)c(F)c(F)c(F)c4F)cc2)C(I)=C(c2ccccc2)C1=N3",
    "Observed value": "> 50 µM"
  }
]

// next item, IC50 at 27 h requested
Task: Report IC50 at 27 h, nothing else, for this compound: "C=Cc1c(C)c2cc3nc(c(CC(=O)O)c4[nH]c(cc5nc(cc1[nH]2)C(C)=C5CC)c(C)c4C(=O)O)[C@@H](CCC(=O)O)[C@@H]3C"
Result: > 50 µM
